IC50: recorded values
target: human P2X3 receptor (Homo sapiens (Human), UniProt P56373); assay: Evaluation of human P2X3 receptor inhibitory activity (Test Example 1); format: cell-based; settings: C6BU-1 cell transfected with human P2X3 receptor gene, FLIPR 384
Sequence (P56373 whole entry): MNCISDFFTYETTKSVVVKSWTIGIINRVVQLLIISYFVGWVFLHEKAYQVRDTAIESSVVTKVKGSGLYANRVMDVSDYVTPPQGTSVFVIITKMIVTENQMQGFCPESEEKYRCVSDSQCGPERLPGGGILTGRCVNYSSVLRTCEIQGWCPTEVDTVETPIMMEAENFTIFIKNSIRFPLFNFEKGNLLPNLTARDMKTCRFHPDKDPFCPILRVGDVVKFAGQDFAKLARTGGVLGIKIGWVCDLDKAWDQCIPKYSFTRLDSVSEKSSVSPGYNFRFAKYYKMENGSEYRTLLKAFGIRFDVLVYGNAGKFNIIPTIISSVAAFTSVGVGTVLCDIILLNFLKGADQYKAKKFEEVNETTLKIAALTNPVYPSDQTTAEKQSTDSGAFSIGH
Source text: […]

[
  {
    "Smiles Structure": "C[C@@H](Cn1c(=O)[nH]/c(=N\\c2ccc(Oc3ccc(F)cn3)cc2)n(CC2CC3(CCC3)C2)c1=O)C(=O)O",
    "IC50, nM": 5
  },
  {
    "Smiles Structure": "Cc1ccc(Cn2c(=O)n(CC(C)(C)C(=O)O)c(=O)[nH]/c2=N\\c2ccc(Oc3ccc(OC(F)F)cn3)cc2)cc1",
    "IC50, nM": 7
  },
  {
    "Smiles Structure": "CC(C)(Cn1c(=O)[nH]/c(=N\\c2ccc(Oc3ccc(F)cn3)cc2)n(Cc2ccc(Cl)cc2)c1=O)C(=O)O",
    "IC50, nM": 8
  },
  {
    "Smiles Structure": "Cc1cc(/N=c2\\[nH]c(=O)n([C@@H](C)[C@@H](C)C(=O)O)c(=O)n2Cc2ccc(Cl)cc2)ccc1Oc1cncc(F)c1",
    "IC50, nM": 9
  },
  {
    "Smiles Structure": "CCc1[nH]c2ccc(/N=c3\\[nH]c(=O)n(CC(C)(C)C(=O)O)c(=O)n3Cc3ccc(Cl)cc3)cc2c1C",
    "IC50, nM": 13
  },
  {
    "Smiles Structure": "C[C@@H](Cn1c(=O)[nH]/c(=N\\c2ccc(Oc3ccccn3)cc2)n(CC2CC3(CCC3)C2)c1=O)C(=O)O",
    "IC50, nM": 5
  }
]
